Source: patent US12649980B2

tested on: DLD1 GLUT1 KO; assay: [3H]-2DG uptake in DLD1 GLUT1 knockout cells; assay type: cell-based; conditions: Homo sapiens, DLD-1, DLD1 GLUT1 knockout
pEC50: −log10 of the molar value.
MEASURED_QUANTITY: pEC50

// query Look up pEC50 for this compound: "Cc1c(NC(=O)c2cc(C(N)=O)nc3cc(F)ccc23)c(C(F)(F)F)nn1Cc1ccc(C#N)cc1"
// result < 6.00
